The measurements presented in this section are drawn from ChEMBL document CHEMBL3639166.

Target: cAMP and cAMP-inhibited cGMP 3',5'-cyclic phosphodiesterase 10A (Rattus norvegicus, UniProt Q9QYJ6)
Sequence (Q9QYJ6 whole entry): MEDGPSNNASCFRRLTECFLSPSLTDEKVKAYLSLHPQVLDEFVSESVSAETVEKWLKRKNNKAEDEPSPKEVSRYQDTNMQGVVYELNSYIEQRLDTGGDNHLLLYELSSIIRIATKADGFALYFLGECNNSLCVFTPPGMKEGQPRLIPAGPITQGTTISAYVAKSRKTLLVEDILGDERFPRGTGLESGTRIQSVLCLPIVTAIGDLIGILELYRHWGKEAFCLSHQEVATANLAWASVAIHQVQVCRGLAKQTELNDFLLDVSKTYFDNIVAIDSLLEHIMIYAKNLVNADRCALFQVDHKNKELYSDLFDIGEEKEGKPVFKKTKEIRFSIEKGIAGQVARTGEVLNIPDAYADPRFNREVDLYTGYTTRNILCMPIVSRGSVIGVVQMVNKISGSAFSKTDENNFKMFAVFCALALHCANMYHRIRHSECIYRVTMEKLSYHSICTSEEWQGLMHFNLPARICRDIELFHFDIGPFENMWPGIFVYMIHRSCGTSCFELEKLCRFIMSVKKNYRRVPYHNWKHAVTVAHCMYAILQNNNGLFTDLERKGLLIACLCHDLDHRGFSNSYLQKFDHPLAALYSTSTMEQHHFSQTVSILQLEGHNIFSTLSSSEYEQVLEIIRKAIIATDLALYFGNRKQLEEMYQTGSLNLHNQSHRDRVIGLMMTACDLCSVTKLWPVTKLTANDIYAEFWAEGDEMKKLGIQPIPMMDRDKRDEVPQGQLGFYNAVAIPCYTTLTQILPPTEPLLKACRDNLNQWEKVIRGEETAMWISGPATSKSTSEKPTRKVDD
pIC50: −log10 of the molar value.
Consider the reported pIC50 of an entry and match it to a band in lower = under 6, middle = from 6 up to 7, upper = 7 and over

[
  {
    "COMPOUND": "CC(C)C(=O)N1CCCC(c2cccnc2OC2CN(C(=O)c3nc4ccccc4[nH]3)C2)C1 (centres undefined)",
    "ANSWER_LABEL": "upper"
  },
  {
    "COMPOUND": "c1ccc2nc(N3CC(Oc4nccnc4N4CCCCCC4)C3)ccc2c1",
    "ANSWER_LABEL": "middle"
  },
  {
    "COMPOUND": "C1=CCN(c2nccnc2OC2CN(c3ccc4ccccc4n3)C2)CC1",
    "ANSWER_LABEL": "middle"
  },
  {
    "COMPOUND": "N#CC1CCN(c2cc(F)cnc2OC2CN(c3ccc4ccccc4n3)C2)CC1",
    "ANSWER_LABEL": "upper"
  },
  {
    "COMPOUND": "CC(=O)N1CCC(c2cnc(N3CCC(CO)CC3)nc2OC2CN(c3ccc4ccccc4n3)C2)CC1",
    "ANSWER_LABEL": "upper"
  },
  {
    "COMPOUND": "c1ccc2[nH]c(N3CCC(Oc4nccnc4C4CCOCC4)CC3)nc2c1",
    "ANSWER_LABEL": "middle"
  }
]

Looking at CC(C)(C)OC(=O)N1CC(Oc2ncccc2[C@H]2CC[C@H](O)CC2)C1 , which class would you pick?
upper

Request: c1cnc(OC2CCN(c3nccc4ccccc34)CC2)c(C2CCOCC2)c1
lower

OCC1CCN(c2ncc(Br)c(OC3CN(c4cnc5ccccc5n4)C3)n2)CC1 , same question.
upper

And what about the compound CC(=O)N1CCC(c2cccnc2OC2CCN(c3cc(C)ccn3)CC2)CC1 ?
lower

Ok, now c1ccc2nc(N3CC(Oc4nccnc4C4CCOCC4)C3)ccc2c1
middle

# repeat for Cc1cc(-c2nccnc2O[C@@H]2CCN(c3ccc4ccccc4n3)C2)ccn1
middle

Now the compound Nc1ncc2cc(-c3nccnc3OC3CN(c4ccc5ccccc5n4)C3)ccc2n1
upper

----------
# pIC50 listing for each entry below
biological target: cAMP and cAMP-inhibited cGMP 3',5'-cyclic phosphodiesterase 10A (Rattus norvegicus, UniProt Q9QYJ6)
Conceptually, pIC50 converts a concentration in mol/L into minus its log10.

[
  {
    "COMPOUND": "O=C(c1ncc[nH]1)N1CCC(Oc2ncccc2C2CCOCC2)CC1",
    "MEASUREMENT": 5.43
  },
  {
    "COMPOUND": "OCC1CCN(c2ncc(C3=CCOCC3)c(OC3CN(c4ccc5ccccc5n4)C3)n2)CC1",
    "MEASUREMENT": 8.96
  },
  {
    "COMPOUND": "c1ccc(-c2nccnc2OC2CN(c3ccc4ccccc4n3)C2)nc1",
    "MEASUREMENT": 5.91
  },
  {
    "COMPOUND": "CN1CCCN(c2nccnc2OC2CN(c3ccc4ccccc4n3)C2)CC1",
    "MEASUREMENT": 5.52
  },
  {
    "COMPOUND": "CC(=O)N1CCCC(c2cccnc2OC2CN(C(=O)c3cc4ccccc4[nH]3)C2)C1 (stereo not given)",
    "MEASUREMENT": 6.05
  }
]

Data request, read-out pIC50, for Cc1cc(-c2nccnc2OC2CN(C(=O)c3nc4ccccc4[nH]3)C2)ccn1
6.81

Item: c1ccc2cc(N3CC[C@H](Oc4nccnc4C4CCOCC4)C3)ncc2c1
5.87

Repeat for the following compound: c1cnc(O[C@H]2CCN(c3ccc4ccccc4n3)C2)c(C2CCOCC2)c1
6.47

How about this compound: Cc1ccnc(N2CCC(Oc3nccnc3C3CCOCC3)CC2)c1
5.87

Would you mind doing CC(=O)N1CC=C(c2nccnc2OC2CN(C(=O)c3cc(C)c[nH]3)C2)CC1 as well?
6.60

Then c1ccc2c(N3CCC(Oc4nccnc4C4CCOCC4)CC3)nccc2c1 ?
5.55

Same thing, different compound: O=C(c1nc2ccccc2[nH]1)N1CC[C@H](Oc2ncccc2C2CCOCC2)C1
6.39

# repeat for COC(=O)N1CCC(c2nccnc2OC2CN(c3ccc4ccccc4n3)C2)CC1
6.80

Next record, please: c1ccc2nc(N3CC(Oc4nccnc4-c4ccc(OCC5CC5)nc4)C3)ccc2c1
7.30

Another compound to check: COc1cccc(-c2nccnc2OC2CN(c3ccc4ccccc4n3)C2)c1
7.72

Moving on to c1cnc(OC2CCN(c3cc4ccccc4cn3)CC2)c(C2CCOCC2)c1
6.45

Repeat with Cc1ccc(N2CCC(Oc3ncccc3C3CCOCC3)CC2)nc1
6.58

Input OCC1CCCN(c2ncc(Br)c(OC3CN(c4ccc5ccccc5n4)C3)n2)C1 (stereo not given)
7.22

----------
target: cAMP and cAMP-inhibited cGMP 3',5'-cyclic phosphodiesterase 10A (Rattus norvegicus)
pIC50: −log10 of the molar value.
Returns one of Satisfied or Not satisfied; Satisfied when pIC50 is >= 7.

[
  {
    "SMILES_NOTATION": "Cc1cccnc1C(=O)N1CCC(Oc2ncccc2C2CCOCC2)CC1",
    "ANSWER_LABEL": "Not satisfied"
  },
  {
    "SMILES_NOTATION": "O=C(c1nc2ccccc2[nH]1)N1CC(Oc2nc3ccccc3nc2C2CCOCC2)C1",
    "ANSWER_LABEL": "Not satisfied"
  },
  {
    "SMILES_NOTATION": "Cc1ccc(C(=O)N2CCC(Oc3ncccc3C3CCOCC3)CC2)nc1",
    "ANSWER_LABEL": "Not satisfied"
  },
  {
    "SMILES_NOTATION": "CC(=O)N1CCC(c2nccnc2OC2CN(c3nc4ccccc4[nH]3)C2)CC1",
    "ANSWER_LABEL": "Not satisfied"
  },
  {
    "SMILES_NOTATION": "Brc1cccnc1OC1CN(c2cccnn2)C1",
    "ANSWER_LABEL": "Satisfied"
  }
]

Does N#Cc1ccc(-c2nccnc2OC2CN(c3ccc4ccccc4n3)C2)cn1 have a reported pIC50 of at least 7?
Satisfied

One more molecule: O=C(c1nccc2ccccc12)N1CCC(Oc2ncccc2N2CCOCC2)CC1
Not satisfied

Item: c1cnc(O[C@H]2CCN(c3nccc4ccccc34)C2)c(C2CCOCC2)c1
Not satisfied

Let us now turn to O=C(c1nccc2ccccc12)N1CCC(Oc2nccnc2C2CCOCC2)CC1
Not satisfied

Same question, OCC1CCN(c2nc3ccccc3nc2OC2CN(c3ccc4ccccc4n3)C2)CC1 this time
Satisfied

----------
Molecular target: cAMP and cAMP-inhibited cGMP 3',5'-cyclic phosphodiesterase 10A (Rattus norvegicus, UniProt Q9QYJ6)
Sequence (Q9QYJ6 whole entry): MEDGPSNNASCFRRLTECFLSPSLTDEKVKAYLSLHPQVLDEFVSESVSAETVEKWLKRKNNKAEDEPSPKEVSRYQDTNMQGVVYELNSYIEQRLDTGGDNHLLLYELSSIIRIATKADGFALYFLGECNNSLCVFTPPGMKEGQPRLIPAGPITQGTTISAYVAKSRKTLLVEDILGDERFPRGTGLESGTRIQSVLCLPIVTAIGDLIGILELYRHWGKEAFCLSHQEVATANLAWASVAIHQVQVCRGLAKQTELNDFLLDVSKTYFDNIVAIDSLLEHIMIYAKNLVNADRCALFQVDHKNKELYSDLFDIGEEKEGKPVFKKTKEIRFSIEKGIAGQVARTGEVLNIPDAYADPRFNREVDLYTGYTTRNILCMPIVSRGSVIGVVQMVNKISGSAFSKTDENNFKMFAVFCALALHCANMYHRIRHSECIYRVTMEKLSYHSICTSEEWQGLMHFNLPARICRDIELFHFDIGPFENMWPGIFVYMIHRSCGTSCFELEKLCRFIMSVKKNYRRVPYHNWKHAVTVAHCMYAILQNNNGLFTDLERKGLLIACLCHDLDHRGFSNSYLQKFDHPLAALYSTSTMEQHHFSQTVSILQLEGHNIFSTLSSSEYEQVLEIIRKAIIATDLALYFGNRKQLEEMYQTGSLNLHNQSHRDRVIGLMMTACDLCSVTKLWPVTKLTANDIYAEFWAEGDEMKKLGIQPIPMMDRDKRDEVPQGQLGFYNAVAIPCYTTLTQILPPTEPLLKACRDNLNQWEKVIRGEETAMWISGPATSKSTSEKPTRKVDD
RECORDED_ENDPOINT: pIC50
Notebook: values listed as pIC50 are -log10 of the concentration (mol/L).

[
  {
    "SMILES_NOTATION": "Cc1ccncc1-c1nccnc1OC1CN(c2ccc3ccccc3n2)C1",
    "RECORDED_ENDPOINT": "pIC50",
    "MEASUREMENT": 6.60
  },
  {
    "SMILES_NOTATION": "c1cnc(O[C@@H]2CCN(c3ccc4ccccc4n3)C2)c(C2CCOCC2)c1",
    "RECORDED_ENDPOINT": "pIC50",
    "MEASUREMENT": 6.42
  },
  {
    "SMILES_NOTATION": "CC(C)(C)OC(=O)N1CCC=C(c2nccnc2OC2CN(C(=O)c3nc4ccccc4[nH]3)C2)C1",
    "RECORDED_ENDPOINT": "pIC50",
    "MEASUREMENT": 6.64
  },
  {
    "SMILES_NOTATION": "COC1CCN(c2nccnc2OC2CCN(c3ccc4ccccc4n3)CC2)CC1",
    "RECORDED_ENDPOINT": "pIC50",
    "MEASUREMENT": 7.22
  }
]

I am curious: what pIC50 value has been reported for COCC(=O)N1CCC(c2nccnc2OC2CN(c3ccc4ccccc4n3)C2)CC1 ?
6.78

What do you get for OCC1CCN(c2nccnc2O[C@@H]2CCN(c3ccc4ccccc4n3)C2)CC1 ?
6.78

Moving on to COc1ncc(-c2nccnc2OC2CN(c3ccc4ccccc4n3)C2)cn1
7.37
